ASSAY PROTOCOL: Selectivity index, ratio of IC50 for human hFB-hTERT6 cells to IC50 for human K562 cells
Assay type: toxicity
ASSAY SETUP: hFB-hTERT6 cells and K562 cells, read-out: Ratio IC50
// selectivity ratio lookup, one value per entry
Output spec: single numeric token, no unit.

// query Which selectivity ratio value is on record for CS(=O)(=O)O.O=C(NC1CCNCC1)c1cc2c(O)c3c(c(O)c2[nH]1)C(=O)c1ccccc1C3=O ?
// result 1.4

Next:
// query Which selectivity ratio value is on record for CS(=O)(=O)O.O=C(NC1CCCNC1)c1cc2c(O)c3c(c(O)c2[nH]1)C(=O)c1ccccc1C3=O (racemic) ?
// result 3.7

// query Entry to check: CS(=O)(=O)O.NC1CCCN(C(=O)c2cc3c(O)c4c(c(O)c3[nH]2)C(=O)c2ccccc2C4=O)C1 (racemic)
// result 1.5

====

// IC50 at 72 h lookup, one value per entry
ASSAY PROTOCOL: Antiproliferative activity against hFB-hTERT6 cells incubated for 72 hrs by MTT assay
Assay type: toxicity, cell-based
ASSAY SETUP: human
Give the value in µM but do not write µM after it.

// query Which IC50 at 72 h value is on record for CS(=O)(=O)O.O=C1c2ccccc2C(=O)c2c1c(O)c1cc(C(=O)N3CCNCC3)[nH]c1c2O ?
// result 3.3

// query Entry to check: CS(=O)(=O)O.O=C(NC1CCCNC1)c1cc2c(O)c3c(c(O)c2[nH]1)C(=O)c1ccccc1C3=O (racemic)
// result 4.4

Switching to the query record.
// query Which IC50 at 72 h value is on record for CS(=O)(=O)O.O=C(N[C@@H]1CCNC1)c1cc2c(O)c3c(c(O)c2[nH]1)C(=O)c1ccccc1C3=O ?
// result 5

====

System: A549
ASSAY PROTOCOL: Antiproliferative activity against human A549 cells incubated for 72 hrs by MTT assay
Assay type: functional, cell-based
ASSAY SETUP: A549, 72 h
// pIC50 lookup, one value per entry
Please keep in mind that pIC50 is minus log10 of the molar concentration; only the number is needed.

// query Which pIC50 value is on record for CS(=O)(=O)O.O=C(N[C@@H]1CCNC1)c1cc2c(O)c3c(c(O)c2[nH]1)C(=O)c1ccccc1C3=O ?
// result 5.40

// query Entry to check: N[C@H]1CCN(C(=O)c2cc3c(O)c4c(c(O)c3s2)C(=O)c2ccccc2C4=O)C1
// result 5.70

// query Entry to check: CS(=O)(=O)O.N[C@H]1CCN(C(=O)c2cc3c(O)c4c(c(O)c3[nH]2)C(=O)c2ccccc2C4=O)C1
// result 5.11

====

// IC50 at 72 h lookup, one value per entry
ASSAY PROTOCOL: Antiproliferative activity against hFB-hTERT6 cells incubated for 72 hrs by MTT assay
Type: toxicity, cell-based
ASSAY SETUP: human
Give the value in µM but do not write µM after it.

// query Which IC50 at 72 h value is on record for CS(=O)(=O)O.N[C@H]1CCN(C(=O)c2cc3c(O)c4c(c(O)c3[nH]2)C(=O)c2ccccc2C4=O)C1 ?
// result 4.2

// query Entry to check: CS(=O)(=O)O.NC1CCCN(C(=O)c2cc3c(O)c4c(c(O)c3[nH]2)C(=O)c2ccccc2C4=O)C1 (racemic)
// result 1.8

// query Entry to check: N[C@H]1CCN(C(=O)c2cc3c(O)c4c(c(O)c3s2)C(=O)c2ccccc2C4=O)C1
// result 1.8

Switching to the query record.
// query Which IC50 at 72 h value is on record for Cc1[nH]c2c(O)c3c(c(O)c2c1C(=O)N1CC[C@H](N)C1)C(=O)c1ccccc1C3=O ?
// result 5

====

// selectivity ratio lookup, one value per entry
ASSAY PROTOCOL: Selectivity index, ratio of IC50 for human hFB-hTERT6 cells to IC50 for human K562 cells
Assay type: toxicity
ASSAY SETUP: hFB-hTERT6 cells and K562 cells, read-out: Ratio IC50
Output spec: single numeric token, no unit.

Previously resolved entries follow.
// query Which selectivity ratio value is on record for CS(=O)(=O)O.N[C@H]1CCN(C(=O)c2cc3c(O)c4c(c(O)c3[nH]2)C(=O)c2ccccc2C4=O)C1 ?
// result 8.4

// query Entry to check: N[C@H]1CCN(C(=O)c2cc3c(O)c4c(c(O)c3s2)C(=O)c2ccccc2C4=O)C1
// result 6

Next:
// query Which selectivity ratio value is on record for CS(=O)(=O)O.O=C(N[C@H]1CCNC1)c1cc2c(O)c3c(c(O)c2[nH]1)C(=O)c1ccccc1C3=O ?
// result 1.6

// query Entry to check: CS(=O)(=O)O.O=C(N[C@@H]1CCNC1)c1cc2c(O)c3c(c(O)c2[nH]1)C(=O)c1ccccc1C3=O
// result 2.2

// query Entry to check: Cc1[nH]c2c(O)c3c(c(O)c2c1C(=O)N1CC[C@H](N)C1)C(=O)c1ccccc1C3=O
// result 12.5

// query Entry to check: CS(=O)(=O)O.O=C1c2ccccc2C(=O)c2c1c(O)c1cc(C(=O)N3CCNCC3)[nH]c1c2O
// result 3.3

// query Entry to check: CS(=O)(=O)O.N[C@@H]1CCN(C(=O)c2cc3c(O)c4c(c(O)c3[nH]2)C(=O)c2ccccc2C4=O)C1
// result 3.3

====

ASSAY PROTOCOL: Antiproliferative activity against hFB-hTERT6 cells incubated for 72 hrs by MTT assay
Type: toxicity, cell-based
ASSAY SETUP: human
VALUE TYPE: IC50 at 72 h (µM)
Give the value in µM but do not write µM after it.

Previously resolved entries follow.
// query Which IC50 at 72 h value is on record for CS(=O)(=O)O.O=C(NC1CCNCC1)c1cc2c(O)c3c(c(O)c2[nH]1)C(=O)c1ccccc1C3=O ?
// result 2.6

// query Entry to check: CS(=O)(=O)O.O=C(N[C@H]1CCNC1)c1cc2c(O)c3c(c(O)c2[nH]1)C(=O)c1ccccc1C3=O
// result 5.5

Next:
// query Which IC50 at 72 h value is on record for CS(=O)(=O)O.N[C@@H]1CCN(C(=O)c2cc3c(O)c4c(c(O)c3[nH]2)C(=O)c2ccccc2C4=O)C1 ?
// result 4.3

====

Tested on: A549
ASSAY PROTOCOL: Antiproliferative activity against human A549 cells incubated for 72 hrs by MTT assay
Type: functional, cell-based
ASSAY SETUP: A549, 72 h
VALUE TYPE: pIC50
Please keep in mind that pIC50 is minus log10 of the molar concentration; only the number is needed.

// query Which pIC50 value is on record for CS(=O)(=O)O.O=C(NC1CCCNC1)c1cc2c(O)c3c(c(O)c2[nH]1)C(=O)c1ccccc1C3=O (racemic) ?
// result 5.05

// query Entry to check: CS(=O)(=O)O.O=C(N[C@H]1CCNC1)c1cc2c(O)c3c(c(O)c2[nH]1)C(=O)c1ccccc1C3=O
// result 5.37

// query Entry to check: Cc1[nH]c2c(O)c3c(c(O)c2c1C(=O)N1CC[C@H](N)C1)C(=O)c1ccccc1C3=O
// result 5.72

// query Entry to check: CS(=O)(=O)O.O=C(NC1CCNCC1)c1cc2c(O)c3c(c(O)c2[nH]1)C(=O)c1ccccc1C3=O
// result 5.38

Next:
// query Which pIC50 value is on record for CS(=O)(=O)O.NC1CCCN(C(=O)c2cc3c(O)c4c(c(O)c3[nH]2)C(=O)c2ccccc2C4=O)C1 (racemic) ?
// result 5.92

// query Entry to check: CS(=O)(=O)O.O=C1c2ccccc2C(=O)c2c1c(O)c1cc(C(=O)N3CCNCC3)[nH]c1c2O
// result 5.36

// query Entry to check: CS(=O)(=O)O.N[C@@H]1CCN(C(=O)c2cc3c(O)c4c(c(O)c3[nH]2)C(=O)c2ccccc2C4=O)C1
// result 5.37
